biological target: JAK1 (Homo sapiens, UniProt P23458); construct: endogenous in cells; host or cells: Molt4 (ATCC CRL-1582) and Ramos (ATCC CRL-1596) cells; mixed lysate 1:2; assay: Kinobeads assay with immunodetection, JAK1; assay type: binding; conditions: JAK1 over JAK2
Sequence (P23458 whole entry): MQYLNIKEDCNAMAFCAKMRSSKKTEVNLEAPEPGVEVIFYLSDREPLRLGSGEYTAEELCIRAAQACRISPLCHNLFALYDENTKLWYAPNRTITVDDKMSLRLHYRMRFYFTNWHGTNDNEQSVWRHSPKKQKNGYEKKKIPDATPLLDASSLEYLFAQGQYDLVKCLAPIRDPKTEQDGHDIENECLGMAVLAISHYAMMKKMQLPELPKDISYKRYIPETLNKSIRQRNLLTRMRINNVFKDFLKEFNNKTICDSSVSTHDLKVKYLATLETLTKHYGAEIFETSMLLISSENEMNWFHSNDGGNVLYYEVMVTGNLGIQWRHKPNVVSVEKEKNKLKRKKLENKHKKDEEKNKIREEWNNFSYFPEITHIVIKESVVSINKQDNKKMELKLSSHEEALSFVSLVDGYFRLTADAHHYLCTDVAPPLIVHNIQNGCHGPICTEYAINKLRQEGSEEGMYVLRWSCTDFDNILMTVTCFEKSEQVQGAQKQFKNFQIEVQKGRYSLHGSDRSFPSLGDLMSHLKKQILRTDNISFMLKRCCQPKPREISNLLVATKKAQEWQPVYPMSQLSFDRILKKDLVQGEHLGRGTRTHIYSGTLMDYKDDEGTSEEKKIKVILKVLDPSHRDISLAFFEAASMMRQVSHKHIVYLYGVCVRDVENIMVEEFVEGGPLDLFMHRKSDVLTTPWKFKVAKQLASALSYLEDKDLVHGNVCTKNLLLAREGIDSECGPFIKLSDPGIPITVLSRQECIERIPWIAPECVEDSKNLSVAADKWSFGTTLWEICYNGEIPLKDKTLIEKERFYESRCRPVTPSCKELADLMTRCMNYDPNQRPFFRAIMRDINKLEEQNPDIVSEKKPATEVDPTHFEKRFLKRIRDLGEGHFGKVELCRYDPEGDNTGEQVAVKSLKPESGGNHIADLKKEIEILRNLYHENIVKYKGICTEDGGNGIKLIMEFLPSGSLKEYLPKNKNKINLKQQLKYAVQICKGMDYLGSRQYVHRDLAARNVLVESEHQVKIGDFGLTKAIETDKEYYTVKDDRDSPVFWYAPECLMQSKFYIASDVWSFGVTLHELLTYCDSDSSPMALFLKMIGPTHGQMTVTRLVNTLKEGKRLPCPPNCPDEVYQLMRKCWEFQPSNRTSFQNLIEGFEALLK
Parameter measured: Selectivity ratio over JAK2, JAK1

- Cc1cnc(Nc2cnn(C)c2)nc1NC[C@@H]1C[C@H](F)CN1CCC#N: JAK1 = 17
- CS(=O)(=O)N1CC[C@H](CNc2nc(Nc3cnn(CCO)c3)ncc2Cl)C1: JAK1 = 27
- CN(C)CC(=O)N1CC[C@H](CNc2nc(Nc3cnn(C)c3)ncc2Cl)C1: JAK1 = 33
- CS(=O)(=O)N1CCC[C@H]1CNc1nc(Nc2cnn(CCO)c2)ncc1Cl: JAK1 = 13
- Cn1cc(Nc2ncc(Cl)c(NC[C@@H]3C[C@H](F)CN3CCS(C)(=O)=O)n2)cn1: JAK1 = 27
- Cc1cnc(Nc2cnn(C)c2)nc1NC[C@@H]1CCCN1CCS(C)(=O)=O: JAK1 = 33
- C=CS(=O)(=O)N1CCC[C@H]1CNc1nc(Nc2cnn(CCO)c2)ncc1Cl: JAK1 = 13
- Cn1cc(Nc2ncc(Cl)c(NC[C@H]3CCCN3S(C)(=O)=O)n2)cn1: JAK1 = 13
- CC(=O)N1CCC[C@H]1CNc1nc(Nc2cnn(C)c2)ncc1Cl: JAK1 = 17

====

target: TYK2 (Homo sapiens, UniProt P29597); construct: endogenous in cells; mixed lysate 1:2; experiment: Kinobeads assay with immunodetection, TYK2; conditions: Kinobeads assay, mixed Molt4/Ramos lysate; read-out: Inhibition values (IC50) Tyk2
Sequence (P29597 whole entry): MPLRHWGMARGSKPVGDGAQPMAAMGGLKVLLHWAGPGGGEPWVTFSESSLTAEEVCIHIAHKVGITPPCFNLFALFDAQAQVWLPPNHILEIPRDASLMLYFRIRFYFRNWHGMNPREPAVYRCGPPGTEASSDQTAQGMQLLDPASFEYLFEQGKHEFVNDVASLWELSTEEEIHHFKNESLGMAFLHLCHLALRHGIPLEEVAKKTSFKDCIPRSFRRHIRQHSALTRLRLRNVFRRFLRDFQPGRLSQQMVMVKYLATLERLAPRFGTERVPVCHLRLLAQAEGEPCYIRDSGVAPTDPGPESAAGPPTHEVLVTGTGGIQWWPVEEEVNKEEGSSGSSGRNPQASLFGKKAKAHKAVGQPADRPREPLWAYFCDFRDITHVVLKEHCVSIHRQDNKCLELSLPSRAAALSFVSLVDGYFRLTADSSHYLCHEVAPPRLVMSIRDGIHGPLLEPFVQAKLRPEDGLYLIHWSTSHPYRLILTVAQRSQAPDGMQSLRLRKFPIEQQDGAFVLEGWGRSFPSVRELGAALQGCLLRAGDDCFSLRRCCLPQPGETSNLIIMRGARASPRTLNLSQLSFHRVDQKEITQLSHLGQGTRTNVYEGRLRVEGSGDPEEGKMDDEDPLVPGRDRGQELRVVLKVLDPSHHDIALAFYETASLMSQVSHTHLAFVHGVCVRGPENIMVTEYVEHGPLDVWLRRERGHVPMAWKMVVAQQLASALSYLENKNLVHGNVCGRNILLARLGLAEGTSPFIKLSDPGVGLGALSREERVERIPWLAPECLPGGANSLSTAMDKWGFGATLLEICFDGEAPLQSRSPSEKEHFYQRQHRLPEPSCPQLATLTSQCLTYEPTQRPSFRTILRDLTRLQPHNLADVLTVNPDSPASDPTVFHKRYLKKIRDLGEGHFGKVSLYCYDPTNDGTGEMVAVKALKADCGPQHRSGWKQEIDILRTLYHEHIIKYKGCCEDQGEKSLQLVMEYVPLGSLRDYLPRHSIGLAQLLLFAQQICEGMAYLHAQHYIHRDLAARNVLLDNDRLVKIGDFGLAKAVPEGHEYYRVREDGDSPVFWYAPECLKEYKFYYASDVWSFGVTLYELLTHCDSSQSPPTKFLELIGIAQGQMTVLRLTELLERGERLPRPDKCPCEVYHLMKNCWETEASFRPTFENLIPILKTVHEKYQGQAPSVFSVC
Listed next: entries and their corresponding IC50.
Parameter measured: IC50

* C=CC(=O)N1CCC[C@@H]1CNc1nc(Nc2cnn(CCO)c2)ncc1Cl | < 100 nM
* Cn1cc(Nc2ncc(Cl)c(NC[C@@H]3CCCN(C(=O)CC#N)C3)n2)cn1 | < 100 nM
* Cn1cc(Nc2ncc(Cl)c(NC[C@H]3CCCN3S(C)(=O)=O)n2)cn1 | < 100 nM
* Cc1cnc(Nc2cnn(CC(F)F)c2)nc1NC[C@@H]1C[C@H](F)CN1C(=O)CCC#N | 100 to 1000 nM
* CN(C)CC(=O)N1CC[C@H](CNc2nc(Nc3cnn(C)c3)ncc2Cl)C1 | 100 to 1000 nM
* CN(C)C(=O)Cn1cc(Nc2ncc(Cl)c(NC[C@@H]3CCCN3S(C)(=O)=O)n2)cn1 | < 100 nM
* CC(=O)N1CCC[C@H]1CNc1nc(Nc2cnn(C)c2)ncc1Cl | 100 to 1000 nM
* Cc1cnc(Nc2cnn(CC(F)F)c2)nc1NC[C@H]1CCN(CCS(C)(=O)=O)C1 | 100 to 1000 nM

====

target: JAK1 (Homo sapiens, UniProt P23458); construct: endogenous in cells; host or cells: Molt4 (ATCC CRL-1582) and Ramos (ATCC CRL-1596) cells; mixed lysate 1:2; assay: Kinobeads assay with immunodetection, JAK1; format: binding; conditions: JAK1 over JAK2
Parameter measured: Selectivity ratio over JAK2, JAK1

• CN1CCCC1CNc1nc(Nc2cnn(C)c2)ncc1Cl (stereo not drawn) = JAK1 = 23
• Cn1cc(Nc2ncc(Cl)c(NC[C@@H]3C[C@H](F)CN3CCC#N)n2)cn1 = JAK1 = 23
• CC(=O)N1CC[C@@H](CNc2nc(Nc3cnn(CCO)c3)ncc2Cl)C1 = JAK1 = 23

====

molecular target: JAK2 (Homo sapiens, UniProt O60674); construct: endogenous in cells; mixed lysate 1:2; experiment: Kinobeads assay with immunodetection, JAK2; conditions: mixed Molt4/Ramos lysate, read-out: Inhibition values (IC50) JAK2
Sequence (O60674 whole entry): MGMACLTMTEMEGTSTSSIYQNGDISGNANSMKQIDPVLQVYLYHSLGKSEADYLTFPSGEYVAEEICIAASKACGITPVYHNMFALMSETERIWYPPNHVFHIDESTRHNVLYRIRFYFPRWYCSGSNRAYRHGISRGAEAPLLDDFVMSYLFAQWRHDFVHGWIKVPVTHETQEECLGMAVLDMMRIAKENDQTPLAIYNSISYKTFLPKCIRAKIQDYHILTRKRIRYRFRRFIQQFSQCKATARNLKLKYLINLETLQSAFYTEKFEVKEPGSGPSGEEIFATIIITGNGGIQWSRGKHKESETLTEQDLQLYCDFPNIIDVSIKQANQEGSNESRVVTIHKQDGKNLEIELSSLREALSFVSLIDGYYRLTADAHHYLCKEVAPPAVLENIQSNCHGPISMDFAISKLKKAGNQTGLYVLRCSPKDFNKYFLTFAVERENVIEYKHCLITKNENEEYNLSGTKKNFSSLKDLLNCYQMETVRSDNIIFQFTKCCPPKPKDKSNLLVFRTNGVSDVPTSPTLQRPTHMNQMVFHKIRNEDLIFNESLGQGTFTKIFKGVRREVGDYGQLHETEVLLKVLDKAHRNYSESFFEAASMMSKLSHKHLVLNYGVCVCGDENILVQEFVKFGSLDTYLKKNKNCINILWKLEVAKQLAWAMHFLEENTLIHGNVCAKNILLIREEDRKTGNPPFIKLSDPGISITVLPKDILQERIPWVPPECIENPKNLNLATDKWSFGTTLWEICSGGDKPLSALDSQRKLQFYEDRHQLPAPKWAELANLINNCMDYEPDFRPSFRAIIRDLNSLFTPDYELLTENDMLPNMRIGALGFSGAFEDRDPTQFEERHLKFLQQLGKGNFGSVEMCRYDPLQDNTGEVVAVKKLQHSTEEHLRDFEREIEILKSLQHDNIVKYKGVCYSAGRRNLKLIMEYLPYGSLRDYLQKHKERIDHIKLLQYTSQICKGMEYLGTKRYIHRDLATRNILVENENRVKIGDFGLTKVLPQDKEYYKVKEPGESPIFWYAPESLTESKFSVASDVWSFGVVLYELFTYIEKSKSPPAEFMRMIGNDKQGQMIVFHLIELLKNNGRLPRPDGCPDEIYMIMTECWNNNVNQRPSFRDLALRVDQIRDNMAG
pIC50: −log10 of the molar value.
Listed next: entries and their corresponding pIC50.
Parameter measured: pIC50

- CS(=O)(=O)N1CCC[C@H]1CNc1nc(Nc2cnn(CCO)c2)ncc1Cl: 6.00 to 7.00
- CNC(=O)Cn1cc(Nc2ncc(Cl)c(NC[C@H]3CCCN3S(C)(=O)=O)n2)cn1: > 7.00
- Cc1cnc(Nc2cnn(CC(F)F)c2)nc1NC[C@@H]1C[C@H](F)CN1C(=O)CCC#N: 5.00 to 6.00
- C=CC(=O)N1CCC[C@@H]1CNc1nc(Nc2cnn(C)c2)ncc1Cl: 5.00 to 6.00

====

Listed next: entries and their corresponding IC50.
molecular target: JAK2 (Homo sapiens); construct: endogenous in cells; mixed lysate 1:2; experiment: Kinobeads assay with immunodetection, JAK2; settings: mixed Molt4/Ramos lysate, read-out: Inhibition values (IC50) JAK2
Counter-ions that a name gives are not always drawn.
Parameter measured: IC50

* CC(=O)N1CCC[C@@H]1CNc1nc(Nc2cnn(CCO)c2)ncc1Cl [Example 2] | 0.1 to 1 µM
* C=CC(=O)N1CC[C@H](CNc2nc(Nc3cnn(C)c3)ncc2Cl)C1 [Example 22] | 1 to 10 µM
* Cn1cc(Nc2ncc(Cl)c(NC[C@@H]3C[C@H](F)CN3CCCS(C)(=O)=O)n2)cn1 [Example 132] | 1 to 10 µM
* CS(=O)(=O)N1CC(CNc2nc(Nc3cnn(CCO)c3)ncc2Cl)C1 [Example 19] | 1 to 10 µM
* Cn1cc(Nc2ncc(Cl)c(NC[C@H]3CCCN(C(=O)CCC#N)C3)n2)cn1 [Example 138] | 0.1 to 1 µM
* Cn1cc(Nc2ncc(Cl)c(NC[C@@H]3CCCN(C(=O)CCC#N)C3)n2)cn1 [Example 136] | 0.1 to 1 µM
* CCN1CCC[C@@H]1CNc1nc(Nc2cnn(C)c2)ncc1Cl [Example 60] | > 10 µM
* CS(=O)(=O)N1CC[C@H](CNc2nc(Nc3cnn(CCO)c3)ncc2Cl)C1 [Example 85] | 0.1 to 1 µM
* Cn1cc(Nc2ncc(Cl)c(NC[C@H]3CCN(C(=O)CC#N)C3)n2)cn1 [Example 58] | 0.1 to 1 µM
* C=CS(=O)(=O)N1CC[C@H](CNc2nc(Nc3cnn(C)c3)ncc2Cl)C1 [Example 25] | > 10 µM
* Cc1cnc(Nc2cnn(CC(F)F)c2)nc1NC[C@H]1CCCN1CCS(C)(=O)=O [Example 116] | 1 to 10 µM
* C=CC(=O)N1CC[C@@H](CNc2nc(Nc3cnn(CCO)c3)ncc2Cl)C1 [Example 29] | > 10 µM
* CN1C(=O)CCC1CNc1nc(Nc2cnn(C)c2)ncc1Cl (stereo not drawn) [Example 78] | 1 to 10 µM
* CC(=O)N1CC[C@H](CNc2nc(Nc3cnn(CCO)c3)ncc2Cl)C1 [Example 21] | 1 to 10 µM
* C=CS(=O)(=O)N1CCC[C@@H]1CNc1nc(Nc2cnn(C)c2)ncc1Cl [Example 7] | 1 to 10 µM
* C=CS(=O)(=O)N1CC[C@@H](CNc2nc(Nc3cnn(C)c3)ncc2Cl)C1 [Example 31] | 1 to 10 µM
* Cn1cc(Nc2ncc(F)c(NC[C@@H]3CCCN3)n2)cn1 [Example 71, Hydrochloride] | > 10 µM
* CC(C)NC(=O)Cn1cc(Nc2nccc(NC[C@H]3CCCN3C(=O)CCC#N)n2)cn1 [Example 94] | 1 to 10 µM
* Cn1cc(Nc2ncc(Cl)c(NC[C@@H]3CCCCN3S(C)(=O)=O)n2)cn1 [Example 36] | 1 to 10 µM
* Cn1cc(Nc2ncc(F)c(NC[C@H]3CCCN3CCC#N)n2)cn1 [Example 112] | 1 to 10 µM
* CC(=O)N1CCC[C@@H]1CNc1nc(Nc2cnn(C)c2)ncc1Cl [Example 1] | 1 to 10 µM
* Cc1cnc(Nc2cnn(CC(F)F)c2)nc1NC[C@H]1CCCN1CCC#N [Example 117] | 1 to 10 µM
* CNC(=O)Cn1cc(Nc2ncc(Cl)c(NC[C@H]3CCCN3)n2)cn1 [Example 63] | > 10 µM
* CC(=O)N1CCC[C@H]1CNc1nc(Nc2cnn(C)c2)ncc1Cl [Example 8] | 1 to 10 µM
* C=CS(=O)(=O)N1CCC[C@H]1CNc1nc(Nc2cnn(C)c2)ncc1Cl [Example 14] | 1 to 10 µM
* CC(C)NC(=O)Cn1cc(Nc2nccc(NC[C@H]3CCCN3CCC#N)n2)cn1 [Example 83] | > 10 µM
* Cn1cc(Nc2ncc(F)c(NC[C@H]3CCCN3C(=O)CCC#N)n2)cn1 [Example 114] | 1 to 10 µM
* CN(C)C(=O)Cn1cc(Nc2ncc(Cl)c(NC[C@H]3CCCN3)n2)cn1 [Example 64] | > 10 µM
* C=CC(=O)N1CCC[C@H]1CNc1nc(Nc2cnn(C)c2)ncc1Cl [Example 10] | > 10 µM
* CC(=O)N1CCCC[C@@H]1CNc1nc(Nc2cnn(C)c2)ncc1Cl [Example 39] | 1 to 10 µM
* Cc1cnc(Nc2cnn(C)c2)nc1NC[C@@H]1C[C@H](F)CN1C(=O)CC#N [Example 103] | > 10 µM
* CC(=O)N1CC(CNc2nc(Nc3cnn(CCO)c3)ncc2Cl)C1 [Example 17] | > 10 µM
* Cc1cnc(Nc2cnn(CC(F)F)c2)nc1NC[C@H]1CCN(CCC#N)C1 [Example 128] | 1 to 10 µM
* CC(=O)N1CC[C@@H](CNc2nc(Nc3cnn(C)c3)ncc2Cl)C1 [Example 26] | 1 to 10 µM
* Cn1cc(Nc2ncc(Cl)c(NC[C@H]3CCCN3CCC(F)(F)F)n2)cn1 [Example 80] | < 0.1 µM
* CCS(=O)(=O)N1CCC[C@@H]1CNc1nc(Nc2cnn(C)c2)ncc1Cl [Example 51] | 0.1 to 1 µM
